Source listed as patent US20250340574A1.

biological target: CFTR (F508del/MF-HBE cells) (Homo sapiens, UniProt P13569, DEL508-508); construct: human bronchial epithelial (HBE) cells derived from CF subjects heterozygous for F508del and a minimal function CFTR mutation (F508del/MF-HBE); endogenous in cells; host or cells: Primary human bronchial epithelial cells from CF subjects (F508del/MF genotype), differentiated at an air-liquid interface; experiment: Ussing chamber assay of CFTR-mediated short-circuit currents, Assay C (0.026 μM to 25 μM, 6 concentrations); assay type: cell-based; settings: with 33 nM potentiator and 18 μM Tezacaftor, 20% human serum, read-out: C Max activity (%)
Sequence (P13569 with tags, fused parts or gaps DEL508-508): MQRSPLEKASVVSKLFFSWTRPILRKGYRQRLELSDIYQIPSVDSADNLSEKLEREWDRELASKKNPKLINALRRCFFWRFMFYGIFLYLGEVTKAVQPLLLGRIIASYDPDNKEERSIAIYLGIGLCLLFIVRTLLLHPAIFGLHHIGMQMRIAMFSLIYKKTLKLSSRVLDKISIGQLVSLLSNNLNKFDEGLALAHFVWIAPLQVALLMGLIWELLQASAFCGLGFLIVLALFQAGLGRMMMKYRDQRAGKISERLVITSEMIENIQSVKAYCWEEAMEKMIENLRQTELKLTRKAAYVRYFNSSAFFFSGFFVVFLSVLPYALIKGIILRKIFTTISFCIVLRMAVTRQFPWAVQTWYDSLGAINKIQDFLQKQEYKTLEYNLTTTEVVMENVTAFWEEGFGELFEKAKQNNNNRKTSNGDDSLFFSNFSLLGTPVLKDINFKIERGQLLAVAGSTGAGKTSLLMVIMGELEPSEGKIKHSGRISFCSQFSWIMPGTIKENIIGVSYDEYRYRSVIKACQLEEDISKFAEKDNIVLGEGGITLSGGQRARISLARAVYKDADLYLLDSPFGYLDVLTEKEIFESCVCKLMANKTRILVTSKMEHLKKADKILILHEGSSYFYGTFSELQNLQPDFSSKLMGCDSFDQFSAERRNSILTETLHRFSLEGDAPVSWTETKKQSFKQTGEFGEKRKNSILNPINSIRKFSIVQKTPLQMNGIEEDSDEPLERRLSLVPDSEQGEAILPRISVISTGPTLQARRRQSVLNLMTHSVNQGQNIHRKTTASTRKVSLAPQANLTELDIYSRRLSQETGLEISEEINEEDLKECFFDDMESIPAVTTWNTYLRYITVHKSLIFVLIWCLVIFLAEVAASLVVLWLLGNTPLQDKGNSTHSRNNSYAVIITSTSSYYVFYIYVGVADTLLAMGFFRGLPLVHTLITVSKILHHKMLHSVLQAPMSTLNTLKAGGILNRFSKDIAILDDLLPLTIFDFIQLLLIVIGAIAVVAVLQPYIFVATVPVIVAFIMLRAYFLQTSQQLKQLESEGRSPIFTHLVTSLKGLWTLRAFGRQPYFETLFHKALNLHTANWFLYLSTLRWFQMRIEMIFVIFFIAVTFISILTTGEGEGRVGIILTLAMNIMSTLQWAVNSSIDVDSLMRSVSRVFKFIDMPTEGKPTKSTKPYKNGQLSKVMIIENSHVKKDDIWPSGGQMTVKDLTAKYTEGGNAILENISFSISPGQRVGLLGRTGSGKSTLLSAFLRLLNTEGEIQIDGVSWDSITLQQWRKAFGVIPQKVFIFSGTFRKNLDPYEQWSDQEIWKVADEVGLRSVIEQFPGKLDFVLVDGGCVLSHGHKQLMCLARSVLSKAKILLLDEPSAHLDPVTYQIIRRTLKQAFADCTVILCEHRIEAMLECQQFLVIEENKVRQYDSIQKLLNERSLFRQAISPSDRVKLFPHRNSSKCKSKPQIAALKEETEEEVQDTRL
In this section we review reported Emax values for a set of molecules.

| line-notation | target | Emax |
| --- | --- | --- |
| Cc1cccc(C)c1-c1cc2nc(n1)NS(=O)(=O)c1cccc(c1)C(=O)N(Cc1cnc3oc(C4CC4)cc3n1)[C@H](C[C@@H]1CCCCO1)CO2 | CFTR (F508del/MF-HBE cells) (Homo sapiens, UniProt P13569, DEL508-508) | > 60% |

So what Emax did `Cc1cccc(C)c1-c1cc2nc(n1)NS(=O)(=O)c1cccc(c1)C(=O)N(Cc1ccn3cc(C(C)C)nc3n1)[C@H](CC13CC(C1)C3)CO2` get with CFTR (F508del/MF-HBE cells) (Homo sapiens, UniProt P13569, DEL508-508)?
> 60%

// map `Cc1cccc(C)c1-c1cc2nc(n1)NS(=O)(=O)c1cccc(c1)C(=O)N(Cc1cnc3oc(C4CC4)cc3n1)[C@H]([C@H](C)OCc1ccccc1)CO2` to recorded Emax (system: CFTR (F508del/MF-HBE cells) (Homo sapiens, UniProt P13569, DEL508-508))
> 60%
